From: the RNAGym collection of RNA variant scans (doi:10.1021/acssynbio.7b00057)

Exercise: for every item that follows, state its recorded aptazyme ON/OFF ratio.
B1: Pistol ribozyme (parent)
chain: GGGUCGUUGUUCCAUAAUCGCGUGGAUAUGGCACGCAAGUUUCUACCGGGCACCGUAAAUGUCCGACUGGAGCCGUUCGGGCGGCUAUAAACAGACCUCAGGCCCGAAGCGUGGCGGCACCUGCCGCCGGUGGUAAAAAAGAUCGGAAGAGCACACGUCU

# Variants of: B1
# procedureSummary: aptazyme ON/OFF ratio, guanine; higher = stronger switching; co-transcriptional cleavage with and without guanine
Give bare numbers.

variant: U7G U8C G9C U11G C13G
aptazyme ON/OFF ratio: 1.17
--
variant: U7A U8A G9A U10C C12U C13U
aptazyme ON/OFF ratio: 1.19
--
variant: U7A U8C G9U U10G U11C C12A
aptazyme ON/OFF ratio: 1.25
--
variant: U7G U8C U11C C12A C13A
aptazyme ON/OFF ratio: 1.37
--
variant: U7A U8C G9C U11G C13U
aptazyme ON/OFF ratio: 1.1
--
variant: U7C U8C G9U U10G U11A
aptazyme ON/OFF ratio: 1.32

Field: aptazyme ON/OFF ratio. Fill in for each record below.
1. U7G U8G U10G U11G C12A C13A
2. U7G U8G G9U U10G U11A

1. 1.25
2. 1.4
